system_under_test: CYP51 (CaCYP51), lanosterol 14α-demethylase (Candida albicans)
Construct: gene ERG11; recombinant CaCYP51
Sequence (P10613 whole entry): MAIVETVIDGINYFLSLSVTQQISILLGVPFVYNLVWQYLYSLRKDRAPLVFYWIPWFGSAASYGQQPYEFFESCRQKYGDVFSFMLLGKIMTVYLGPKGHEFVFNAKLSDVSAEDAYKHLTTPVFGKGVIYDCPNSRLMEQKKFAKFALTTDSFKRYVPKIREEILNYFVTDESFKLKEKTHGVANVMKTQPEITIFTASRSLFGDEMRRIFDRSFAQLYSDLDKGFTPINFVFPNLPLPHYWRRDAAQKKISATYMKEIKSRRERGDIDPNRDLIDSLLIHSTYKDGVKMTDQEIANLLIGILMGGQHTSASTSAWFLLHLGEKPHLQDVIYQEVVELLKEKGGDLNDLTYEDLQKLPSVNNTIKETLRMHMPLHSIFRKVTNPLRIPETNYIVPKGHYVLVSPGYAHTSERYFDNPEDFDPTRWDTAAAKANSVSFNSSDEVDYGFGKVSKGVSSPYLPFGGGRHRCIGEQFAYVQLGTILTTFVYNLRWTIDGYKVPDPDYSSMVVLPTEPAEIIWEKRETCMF
test_protocol: CYP51 reconstitution assay with CPR and NADPH, GC-MS of demethylated sterols
Assay type: biochemical
details: read-out: IC50
measured_quantity: IC50

Entry OC(Cn1cncn1)(Cn1cncn1)c1ccc(F)cc1F [fluconazole] — recorded IC50 = ~600 nM

====

system_under_test: CYP51 (CaCYP51), lanosterol 14α-demethylase (Candida albicans)
Construct: gene ERG11; recombinant CaCYP51
test_protocol: CYP51 reconstitution assay with CPR and NADPH, GC-MS of demethylated sterols
Assay type: biochemical
measured_quantity: IC50

Lab note: compound OC(CN1CCC(Nc2ncc(F)cn2)CC1)(Cn1cncn1)c1ccc(F)cc1F (racemic) tested on CYP51 (CaCYP51), lanosterol 14α-demethylase (Candida albicans); recorded IC50 was ~400 nM

The reported measurements were obtained from paper PMC12257509.
